Ref: patent US20050287225A1

System: MOR/P lung cancer cells (cisplatin-sensitive)
Experiment: In-vitro cell toxicity, MTT colorimetry assay (Example 2)
Format: cell-based, human
Conditions: comparison value, incubation not stated
measurement label: pIC50
pIC50 (log units): -log10 of the concentration in mol/L.

# input compound: N.N.[Cl][Pt][Cl] [cisplatin, cis-diaminodichloroplatinum(II)] ; wanted: its pIC50
5.48
